Procedure Text: Cell Viability - LYMP2-002 (AID 977);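 further: compound exposure lasted 24 h at 37 °C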
Experimental Setup: LYMP2-002 lymphoblastoid cell viability, qHTS; series mostly up to 92.2 µM
Results filed as inconclusive are left out. Activity calls are given as the source filed them. The call rests on the fitted dose curve; in most records, active means well fitted cell-killing curve with a large enough effect; inconclusive means small, poorly fitted or top-dose-only effect; inactive means flat fitted curve, though single readings scatter.
Labels: Y = active, N = inactive

Compound	Category Label
Cc1c(C(=O)O)c(O)cc2c1C(=O)c1c(O)c([C@H]3O[C@H](CO)[C@@H](O)[C@H](O)[C@H]3O)c(O)c(O)c1C2=O	N
c1ccc(CSCc2ccccc2)cc1	N
Cc1ccc2ccc3cccc4ccc1c2c34	N
CCCCNCC	N
Oc1cc2c(cc1O)[C@H]1c3ccc(O)c(O)c3OC[C@@]1(O)C2	Y
CC(=O)OC1CC(C)OC(C)O1 (configuration not stated)	N
O=C1OC(=O)c2ccccc21	N
CCCCC(CC)COCCCN (configuration not stated)	N
O=C(OCc1ccccc1)c1ccccc1O	N
S=C(NC1CCCCC1)NC1CCCCC1	N
Cc1ccc(C(=O)O)cc1[N+](=O)[O-]	N
Cc1cccnc1	N
C=CC(=O)OCCCCCCOC(=O)C=C	Y
CC(=O)OCc1ccc2c(c1)OCO2	N
CCC(Cl)CC(Cl)C(Cl)C(Cl)C(Cl)C(C)Cl (configuration not stated)	N
CCOc1ccc2nc(N)sc2c1	N
c1ccc(Nc2cccc3ccccc23)cc1	N
O=[N+]([O-])c1cccc(I)c1	N
CC(=O)Nc1cccc(C)c1	N
Nc1ccccc1O	N
Cc1ccc(O)c(N)c1	N
COc1ccc([N+](=O)[O-])cc1N	N
N=C1C=CC(=C(c2ccc(N)cc2)c2ccc(N)cc2)C=C1	Y
CC(=O)OC(C(=O)c1ccccc1)c1ccccc1 (configuration not stated)	N
C=CC(=O)CC	N
O=C(Cl)c1ccc([N+](=O)[O-])cc1	N
O=C(O)c1cc(N=Nc2ccc([N+](=O)[O-])cc2)ccc1O	N
Clc1nc2ccccc2nc1Cl	N
NC(=O)c1ccc([N+](=O)[O-])cc1	N
Nc1cnn([C@@H]2O[C@H](CO)[C@@H](O)[C@H]2O)c(=O)n1	N
COc1ccc(C(=O)Nc2ccccc2)cc1[N+](=O)[O-]	N
c1ccc(SCCSc2ccccc2)cc1	N
Cc1c2ccccc2c(C)c2c1ccc1ccccc12	N
CCc1ccc(C(c2ccc(CC)cc2)C(Cl)Cl)cc1	N
C1CCCNCC1	N
CCCCCCCC/C=C\CCCCCCCC(=O)N(CCO)CCO	N
CCCCCCCCOc1ccc(C(=O)O)cc1	N
CC(=O)c1ccc(Cl)c(Cl)c1Cl	N
CCCCCCc1ccc(-c2ccc(C#N)cc2)cc1	N
Nc1ccc(N=Nc2ccccc2)c(N)c1	N
O=C1c2ccccc2C(=O)C1(O)O	N
O=[N+]([O-])c1ccc(F)cc1F	N
CCCCCCCCC1CO1 (configuration not stated)	N
Brc1cc(Br)c(Oc2cc(Br)c(Br)cc2Br)cc1Br	N
c1ccncc1	N
Cc1ccc(S(N)(=O)=O)cc1	N
CC(C)S	N

---

System: SC27B
Procedure Text: qHTS profiling for inhibitors of Plasmodium falciparum proliferation (AID 504749); further: nearly all actives have a fitted effect of over 60% in size
Experimental Setup: P. falciparum in erythrocytes, SYBR Green DNA, 72 h; series mostly up to 28.7 µM
Results filed as inconclusive are left out. Active and inactive are the calls of the source. Calls come from the whole dose curve; as a rule, active = well fitted inhibition curve with a large enough effect; inconclusive = small, poorly fitted or top-dose-only effect; inactive = flat fitted curve, though single readings scatter.
Labels: active, inactive

Item Smiles	Category Label
C[C@H](CCC(=O)O)[C@H]1CC[C@@H]2[C@H]3[C@@H](C[C@@H](O)[C@]21C)[C@]1(C)CC[C@H](O)C[C@@H]1C[C@@H]3O	inactive
CC(C)(C)c1ccc(CN2CCN([C@H](c3ccccc3)c3ccc(Cl)cc3)CC2)cc1	active
C[C@]12CC[C@H]3c4ccc(O)cc4CC[C@@H]3[C@H]1CC[C@@H]2OP(=O)(O)O	inactive
CC(C)(C)NC[C@@H](O)c1ccc(O)c(CO)n1	inactive

---

Procedure Text: qHTS Assay for Identification of Small Molecule Agonists for Hypoxia Response Element Signaling Pathway (AID 914); further: % of control where 0% means no effect
Experimental Setup: ME-180 (cervical carcinoma) HRE-bla reporter, beta-lactamase ratio, CoCl2, 17 h; stronger effect = higher value
Records with an inconclusive call do not appear.

Item Smiles	activation, %
S=C1SCN(C2CCCCCCCCCCC2)CN1C1CCCCCCCCCCC1	24.8
CN[C@@H]1NC(=O)c2ccccc2N1Cc1ccc(F)cc1	-6.12
CCN1CCC(O)([C@H](C(=O)O)c2ccccc2)CC1	-12.7

---

Procedure Text: NFAT Signaling Pathway (AID 444);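 further: carbachol stimulus at about its EC50 of 1 µM final; on the % scale 0 is the no-effect control and ±100 the full control effect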
Experimental Setup: Jurkat NFAT-bla M1, carbachol, beta-lactamase ratio, 5 h; at 7.69 µM (top of the series) unless noted
Results filed as inconclusive are left out. Calls of active or inactive are those of the source. The call rests on the fitted dose curve; in most records, active means well fitted curve in either direction with a large enough effect (not every such curve was filed as active); inconclusive means small, poorly fitted or top-dose-only effect, or another doubt; inactive means flat fitted curve, though single readings scatter.
Labels: TRUE = active, FALSE = inactive

Molecule	Category Label
COc1ccc2c(c1)N(CC[C@H]1CCCCN1C)c1ccccc1S2	TRUE
O=C(O)/C=C\C(=O)Nc1ncn[nH]1	FALSE
Cc1ccnc(NS(=O)(=O)c2ccc(N=[N+]=[N-])cc2)n1	FALSE
C[C@H](CCC(=O)O)[C@H]1CC[C@@H]2[C@H]3[C@@H](C[C@@H](O)[C@]21C)[C@]1(C)CC[C@H](O)C[C@@H]1C[C@@H]3O	FALSE
O=c1c[n+](CC[n+]2cc(=O)o[nH]2)[nH]o1	FALSE
Cc1c(C)c(C)c(CC2(C)CSC2)c(CC2(C)CSC2)c1C	FALSE
O=C(O)CC[C@@H](NC(=O)c1ccccc1C(=O)O)C(=O)O	FALSE
CC(C)(C[C@@]1(C)NC(=O)NC1=O)OCc1ccccc1	FALSE
Cc1ccccc1S(=O)(=O)O[C@@H]1NS(=O)(=O)c2ccccc21	FALSE
CC1(C)S[C@@H]2[C@H](NC(=O)Cc3ccccc3)C(=O)N2[C@@H]1C(=O)O	FALSE
c1cncc(-c2cc(-c3cc(-c4cccnc4)n[nH]3)[nH]n2)c1	FALSE
O=C(O)/C=C\C=C/c1ccc2c(c1)OCO2	FALSE
CCCn1cnc2c(SCC(=O)O)nc(N)nc21	FALSE
COc1ccc(-c2nc(N)c3ncn([C@H]4O[C@@H](CO)[C@@H](O)[C@@H]4O)c3n2)cc1	FALSE
Cc1ccc(CCCC(=O)O)cc1C	FALSE
N=c1nc(N)nc(N)n1-c1ccc(S(N)(=O)=O)cc1	FALSE
CN(C)c1ccc2nc3c(C(=O)O)cc(=O)c(O)c-3oc2c1	FALSE
S=C(CSc1ccccc1)Nc1cccc2ccccc12	FALSE
[N-]=[N+]=NC[C@@H]1O[C@@H](n2cnc3c(N)ncnc32)[C@@H]2O[C@@H]21	FALSE
O=C(CCN1CCCCC1)N1CCc2c([nH]c3ccccc23)[C@H]1c1cccnc1	FALSE
ClC(Cl)(Cl)C(N1CCN(c2ccccc2)CC1)N1CCN(c2ccccc2)CC1	FALSE
NC(=O)N[C@H](CC(=O)O)C(=O)O	FALSE
COCCn1c(=O)c(CCc2ccccc2)nc2cnc(Oc3cccc(Cl)c3)nc21	FALSE
COC(=O)c1cc(-c2ccc3ccccc3c2)[nH]c(=O)c1C#N	FALSE
O=C1CC[C@H](NC(=O)c2ccccc2)C(=O)N1	FALSE
CC1=C[N+](=O)c2ccccc2[N+]1=O	FALSE
N/C(=N\O)c1cn([C@@H]2O[C@@H](CO)[C@H](O)[C@@H]2O)c2ncnc(NO)c12	FALSE
CCOc1ccccc1/C=C(\C#N)C(N)=O	FALSE
CC12CC[C@@H]3c4ccc(OP(=O)(O)O)cc4CCC3C1CCC2=O (stereo partly drawn)	FALSE
O=C1c2ccccc2C(=O)c2c1ccc(N1C(=O)c3ccccc3C1=O)c2-c1c(N2C(=O)c3ccccc3C2=O)ccc2c1C(=O)c1ccccc1C2=O	FALSE
NCS(=O)(=O)O	FALSE
O[C@@H](C1=C/C(=C\c2ccncc2)c2ccccc21)c1ccncc1	FALSE
NCCNc1ncnc2ccc(Cl)cc12	FALSE
N#[N+]c1ccc(Nc2ccccc2)cc1	FALSE
NC(N)=N/N=C\c1ccc(C2CCNCC2)cc1	FALSE
c1cncc(CSc2ncnc3nc[nH]c23)c1	FALSE
O=C1OC(=O)[C@@H]2[C@@H]1[C@@H]1CC[C@H]2O1	FALSE
O=C(O)[C@@H]1CCCN1Cc1ccc2c(c1)OCO2	FALSE

---

Assay System: Cytochrome P450 1A2 (Homo sapiens) (UniProt P05177)
Sequence (P05177 whole entry, looked up): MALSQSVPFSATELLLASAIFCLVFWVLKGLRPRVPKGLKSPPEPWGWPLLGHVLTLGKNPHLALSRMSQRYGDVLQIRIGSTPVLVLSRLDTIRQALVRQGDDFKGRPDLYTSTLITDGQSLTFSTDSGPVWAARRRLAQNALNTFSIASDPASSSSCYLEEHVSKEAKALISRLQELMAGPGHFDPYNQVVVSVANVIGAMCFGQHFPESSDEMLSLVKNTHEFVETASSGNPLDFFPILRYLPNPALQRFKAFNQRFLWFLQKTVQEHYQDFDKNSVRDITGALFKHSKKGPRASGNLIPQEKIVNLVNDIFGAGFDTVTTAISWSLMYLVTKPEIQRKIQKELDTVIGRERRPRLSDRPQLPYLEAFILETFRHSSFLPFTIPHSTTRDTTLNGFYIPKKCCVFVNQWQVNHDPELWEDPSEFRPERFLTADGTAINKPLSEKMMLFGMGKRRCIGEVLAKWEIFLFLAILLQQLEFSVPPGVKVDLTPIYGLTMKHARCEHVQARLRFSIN
Procedure Text: p450-cyp1a2 (AID 410)
Experimental Setup: recombinant CYP1A2, luciferin-ME demethylation, luminescence; series mostly up to 11.4 µM
Results filed as inconclusive are left out. The source made the active and inactive calls. Calls come from the whole dose curve.
Labels: T (active), F (inactive)

Item Smiles	Category Label
N[C@H]1[C@@H](C(=O)O)[C@H]2C=C[C@H]1C2	F
CCON=C1C(C)(C)C(C)(C)C(C)(C)C1(C)C	F
CSC(N)=NCCC[C@@H](N)C(=O)O	F
S=C1N[C@H](c2ccccc2)N[C@H](c2ccccc2)S1	T
O=[N+]([O-])c1ccc(CSc2ncnc3c2ncn3[C@@H]2O[C@@H](CO)[C@@H](O)[C@H]2O)cc1	F
COc1ccc(-c2csc3c2[N+]2=CCC=C2C3=O)cc1	T
C[N+](C)(N)CCC[N+](C)(C)N	F
N/C(CC(=O)Nc1cc(C(F)(F)F)ccc1Cl)=N\O	T
COc1cc([C@@H](O)CO)ccc1OS(=O)(=O)O	F
C=CCSc1nc2ccccc2c(=O)n1Cc1ccco1	T
O=C(O)/C=C\C(=O)Nc1ccc2c(c1)-c1ccccc1C2	T
CN(Cc1cc(Cl)cc(Cl)c1O)Cc1c(O)ccc2ccccc12	T
CC[C@H]1CC[C@H]2[C@@H]3CC=C4C[C@H](OC(C)=O)[C@@H](N)C[C@@]4(C)[C@H]3CC[C@@]12C	F
